Test: Azacitidine plasma pharmacokinetics, non-compartmental analysis
Format: in vivo, patients
Conditions: human, plasma, intravenous, azacitidine/oxaliplatin 20/22.5 mg/m^2; C1D1; n = 3; mean (SD)
Source text: Compartmental and non-compartmental modeling were used to derive pharmacokinetic parameters, including Cmax (maximum concentration), AUC (area under the curve), t1/2 (half-life of elimination), Vd (volume of distribution), and CL (clearance).
metric name: Cmax (ng/mL)
Quick note: give the figure in ng/mL, leave out the unit.

Prompt: Check the records and state Cmax for Nc1ncn([C@@H]2O[C@H](CO)[C@@H](O)[C@H]2O)c(=O)n1
Completion: 427

###

Assay: Azacitidine plasma pharmacokinetics, non-compartmental analysis
Assay type: in vivo, patients
Details: human, plasma, intravenous, azacitidine/oxaliplatin 25/30 mg/m^2; C1D5; n = 3; mean (SD)
metric name: Cmax
Dear colleague, please send the value followed by its unit.

Prompt: Check the records and state Cmax for Nc1ncn([C@@H]2O[C@H](CO)[C@@H](O)[C@H]2O)c(=O)n1
Completion: 273 ng/mL
